Biological target: human P2X7 receptor (Homo sapiens, UniProt Q99572)
Sequence (Q99572 whole entry): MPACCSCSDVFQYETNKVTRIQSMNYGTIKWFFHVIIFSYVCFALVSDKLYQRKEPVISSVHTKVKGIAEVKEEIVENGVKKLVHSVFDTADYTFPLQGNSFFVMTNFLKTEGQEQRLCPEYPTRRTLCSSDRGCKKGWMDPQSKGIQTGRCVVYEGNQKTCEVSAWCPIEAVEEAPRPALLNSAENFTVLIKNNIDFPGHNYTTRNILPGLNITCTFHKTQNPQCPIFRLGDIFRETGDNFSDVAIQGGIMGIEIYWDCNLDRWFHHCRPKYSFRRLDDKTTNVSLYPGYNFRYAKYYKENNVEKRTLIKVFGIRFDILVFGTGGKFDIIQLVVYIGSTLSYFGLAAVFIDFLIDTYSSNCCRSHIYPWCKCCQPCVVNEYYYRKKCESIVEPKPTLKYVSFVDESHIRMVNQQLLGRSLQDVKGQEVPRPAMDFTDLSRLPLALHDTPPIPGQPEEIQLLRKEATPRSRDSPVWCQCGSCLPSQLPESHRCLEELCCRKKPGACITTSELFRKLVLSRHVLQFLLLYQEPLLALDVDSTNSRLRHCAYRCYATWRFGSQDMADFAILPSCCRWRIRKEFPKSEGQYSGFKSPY
Assay: whole-cell patch clamp, Fluo-4 calcium influx and ethidium dye uptake (IC50 from dye uptake, […] ATP)
reportedEndpoint: pIC50
// pIC50 here means minus log10 of the molar concentration (mol/L)

Query: For CCCN(CCC)S(=O)(=O)c1ccc(C(=O)O)cc1 , what is its reported pIC50?
Result: 3.69
